Where do the numbers come from? From the RepoRT retention time repository (doi:10.1016/j.jhazmat.2019.121712).

ASSAY_INFO: Thermo Scientific Acclaim RSLC 120 C18, 100 × 2.1 mm, 2.2 µm, 30 °C; A: 90% water + 10% methanol + 0.01% formic acid + 5 mM ammonium formate; B: methanol + 0.01% formic acid + 5 mM ammonium formate; gradient (min/%B) 0.1/1 3/39 14/99.9 16/99.9
REPORTED_CONDITIONS: stereoisomer not certain
Output: class label from LC retention time. Mapping: class 1: < 7 min; class 2: ≥ 7 min and < 9 min; class 3: ≥ 9 min

| COMPOUND | CLASSIFICATION |
| --- | --- |
| CC(CS)C(=O)N1CCCC1C(=O)O (centres undefined) | class 1 |
| CNCCCC12CCC(c3ccccc31)c1ccccc12 | class 2 |

Here is another compound to look at.
# bin lookup: classify CCCCn1cc(C(=O)c2c(C)ccc3ccccc23)c2ccccc21 by its LC retention time
class 3

----------
Overview of recorded LC retention time for various compounds
ASSAY_INFO: Thermo Scientific Acclaim RSLC 120 C18, 100 × 2.1 mm, 2.2 µm, 30 °C; A: 90% water + 10% methanol + 0.01% formic acid + 5 mM ammonium formate; B: methanol + 0.01% formic acid + 5 mM ammonium formate; gradient (min/%B) 0.1/1 3/39 14/99.9 16/99.9
REPORTED_CONDITIONS: stereoisomer not certain
State just the number; it will be interpreted in min.

| COMPOUND | LC retention time (min) |
| --- | --- |
| CSc1ccc(CC(C)N)cc1 (centres undefined) | 5.24 |
| CCOC(=O)C1(c2ccccc2)CCC=CC1N(C)C (centres undefined) | 5.1 |
| CCC(CO)NC(=O)C1C=C2c3cccc4[nH]cc(c34)CC2N(C)C1 (centres undefined) | 4.34 |
| CCCN(CCC)c1c([N+](=O)[O-])cc(C(C)C)cc1[N+](=O)[O-] | 13.2 |
| CN1CCOC(c2ccccc2)c2ccccc2C1 (centres undefined) | 5.67 |
| COc1ccc2[nH]cc(CCN)c2c1 | 4.01 |
| Cn1nc2ccccc2n1 | 5.11 |
| COc1nc(NC(C)C)nc(NC(C)C)n1 | 8.86 |

What does the data say about its LC retention time? Entry: CC(C)CC(C)Nc1ccc(Nc2ccccc2)cc1 (centres undefined)
9.92

Fill blank: measured LC retention time of the compound Cc1ccsc1C(=CCCN1CCCC(C(=O)O)C1)c1sccc1C (centres undefined) is ____.
8.43

Can you look up the measured LC retention time of COc1ccc2nc(S(=O)Cc3ncc(C)c(OC)c3C)[nH]c2c1 (centres undefined) for me?
7.81

Any idea what LC retention time was measured for CCN(Cc1ccncc1)C(=O)C(CO)c1ccccc1 (centres undefined) ?
6.03

Quick one: LC retention time for CCN(CC)CCOCCOC(=O)C(CC)(CC)c1ccccc1 ?
8.04

If you can, please state the reported LC retention time value of Cc1cccc2n[nH]nc12 .
5.83

For the compound CCCCCCn1cc(C(=O)c2cccc3ccccc23)c2ccccc21 , what LC retention time is on record?
12.9

# lookup: LC retention time of CCOP(=S)(OCC)Oc1ccc(S(C)=O)cc1 (centres undefined)
8.27

Reported LC retention time for CCCCOC(=O)c1ccccc1C(=O)OCc1ccccc1 : what is it?
12.4

Using the record for NCCc1ccc(O)cc1 , report its LC retention time.
2.28

Need LC retention time of Cn1cnc2c1c(=O)[nH]c(=O)n2C , thanks.
3.28

I'd like to know its LC retention time. The compound in question is COc1ccc(CC(C)NCC(O)c2ccc(O)c(NC=O)c2)cc1 (centres undefined)
4.79

Fill blank: measured LC retention time of the compound O=C(O)CCCCC1SCC2NC(=O)NC21 (centres undefined) is ____.
4.44

// query LC retention time value for entry CC12Cc3cn[nH]c3CC1CCC1C2CCC2(C)C1CCC2(C)O (centres undefined)
11.3

# LC retention time lookup, item C=CCN1CCC23c4c5ccc(O)c4OC2C(O)C=CC3C1C5 (centres undefined)
3.39

Data request, read-out LC retention time, for CCC1OC(=O)C(C)C(OC2CC(C)(OC)C(O)C(C)O2)C(C)C(OC2OC(C)CC(N(C)C)C2O)C(C)(OC)CC(C)C(=O)C(C)C(O)C1(C)O (centres undefined)
9.18
